Hey, just so you know, these numbers are from patent US20250296953A1.

Reported values of GI50 for individual entries
# System: 60 different human tumor cell lines
# protocol_notes: cells
# test_conditions: COLO 205

{"molecule": "C[C@]12CCc3sc(Nc4ccc(OC(F)(F)F)cc4)nc3C1=CC[C@@H]1[C@@H]2CC[C@]2(C)C(=O)CC[C@@H]12 [IIa.19]", "assay_system": "60 different human tumor cell lines", "readout_units": "µM", "GI50": 2.61}
{"molecule": "C[C@]12CCc3sc(Nc4cccc(O)c4)nc3C1=CC[C@@H]1[C@@H]2CC[C@]2(C)C(=O)CC[C@@H]12 [IIa.17]", "assay_system": "60 different human tumor cell lines", "readout_units": "µM", "GI50": 12.3}
{"molecule": "C[C@]12CC[C@H]3[C@@H](CC=C4c5sc(Nc6ccccc6)nc5CC[C@@]43C)[C@@H]1CC[C@@H]2O [IIIa.10]", "assay_system": "60 different human tumor cell lines", "readout_units": "µM", "GI50": 2.45}
{"molecule": "C[C@]12CC[C@H]3[C@@H](CC=C4c5sc(-c6ccc(O)cc6)nc5CC[C@@]43C)[C@@H]1CC[C@@H]2O [III.5]", "assay_system": "60 different human tumor cell lines", "readout_units": "µM", "GI50": 9.14}
{"molecule": "C[C@]12CCc3sc(NCCc4ccccc4)nc3C1=CC[C@@H]1[C@@H]2CC[C@]2(C)C(=O)CC[C@@H]12 [IIa.2]", "assay_system": "60 different human tumor cell lines", "readout_units": "µM", "GI50": 3.03}
